M1-2 Log2 Median Normalized reference
Tested on: intracellular proteome of ENR+CD and ENR organoids
Assay Overview: LC-MS/MS TMT proteomics of ENR+CD versus ENR organoids
Type: cell-based, C57BL/6 mice
Condition Label: protein abundance ratio ENR+CD versus ENR organoids, sample pair M1-2; LC-MS/MS TMT proteomics
Recorded Metric: M1-2 Log2 Median Normalized

>  <Molecule>
Q9CQU5 (protein, UniProt Q9CQU5 1-252, looked up, full-length) MADAEKNAVAEKNNAVATKEVLAEAAAILEPVGLQEEAELPAKIMEEFMRNSRKKDKLLCSQLQVVNFLQTFLAQEDTEQSPDALASEDASRQKATETKEQWKDMKATYMDHVDVIKCALSEALPQVKEAHRKYTELQKAFEQLEAKKRVLEEKLQLAQKQWVLQQKRLQNLTKISAEVKRRRKRALEKLDGSHQELETLKQQAGQEQEKLQRNQSYLQLLCSLQNKLVISEGKAEDKDVKGRALTAKSKSP

>  <Number>
−0.699

$$$$
>  <Molecule>
Q9QXV0 (protein, UniProt Q9QXV0 1-258, looked up, full-length) MAGSPLLCGPRAGGVGILVLLLLGLLRLPPTLSARPVKEPRSLSAASAPLVETSTPLRLRRAVPRGEAAGAVQELARALAHLLEAERQERARAEAQEAEDQQARVLAQLLRAWGSPRASDPPLAPDDDPDAPAAQLARALLRARLDPAALAAQLVPAPAAAPRPRPPVYDDGPTGPDVEDAGDETPDVDPELLRYLLGRILTGSSEPEAAPAPRRLRRSVDQDLGPEVPPENVLGALLRVKRLENPSPQAPARRLLPP

>  <Number>
0.883

$$$$
